Experiment: yeast display, Sf9 membrane polyspecificity reagent, FACS + sequencing; frameworks hold sequencing errors
Measured attribute: polyreactivity (PSR sort gate)

QVQLVESGGGLVQAGGRLRLSCAASGGIFSAYAMGWYRQAPGTERELVAAISSGGSTKYADSVKGRVTISRDNAQNTVYLQMNSLKPEDTAVYYCAVLYIRWYTYEYWGQGAQVTVSS: high polyreactivity
QVQLVESGGGLVQAGGSLRLSCAASGITFNQYVMGWYRQAPGKESELVAAISRSGATTYYADSVKGRFTISRDNAKNTVYLQMNSLKPEDTAVYYCAVRGSVSYTRYGYWGQGTQVTVSS: high polyreactivity
QVQLVESGGGLVQAGGSLRLSCAASGSILYSNAMGWYRQAPGKERELVAVITWGGGSTYYADSVKGRFTISRDNAKNTVFLQMNSLKPEDTAVYYCAARARRGLRAYVELDYWGQGTQVTVSS: low polyreactivity
QVQLVESGGGLVQAGGSLRLSCAASGLTFFRNAMGWYREATGKERELVATITSTSSTNYADSVKGRFTISRDNAKNSVYLQMNSLIPEDTAVYYCAARTVGRKAGFDYWGQGTQVTVSS: high polyreactivity
QGQRVESGGGLVQAGGSLLLSCAASGLTFAKYAMGWDRQAPGKERELVSTITWSGATTYYADSVKGRFTISRDYAKNTVYLQMNSLKPEDTAVYYCIADLPVYVDYIIGGYGYWGQGTQVTVSS: low polyreactivity

Ask | # query: polyreactivity (PSR sort gate) of entry QVQLVESGGGLVQAGGSLRLSCAASGSIYAVYAMGWYRPAPGKERELVATISGRGGSTYYADSVKGRFTISRDNAKNTVYLQMNSLKPEDTAVYYCNARVLFRRERMDSWGQGTQVTVSS
Reply | high polyreactivity

Ask | Now this one: QVQLVESGGGLVQAGGSLRLSCAASGSIFTPYAMGWSRQAPGKERELVAVISWRVDSTYYADSVKGRFTISRDNAKNTVYLQMNSLKPEDTAVYYCAAKSYLLAPFGSGNRWSRYDYWGQGTQVTVSS
Reply | high polyreactivity

Ask | // same read-out, input: QVQLVESGGGLVQAGGSLRLSCAASGGPFWYYAMGWYRQAPGKERELVAAITRGGSTSYADSVKGRFTISRDNAKKTVYLQMNSLKPEDTAVYYCNARPYSSYWRYNYWGQGTQVTVSS
Reply | high polyreactivity
